test: suppression of endothelial VCAM-1 upregulation – imaging, high-content imaging, pooled HUVEC, TNFa stimulus (AID 456); settings: HUVEC TNFa-induced VCAM-1 surface expression, immunofluorescence imaging;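 compounds screened at 5 µM final in the well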
Screen size: about 10,000 compounds; about 25 (0.2%) were called active.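 Rule for the calls: active = top tenth filtered wells with inhibition above zero that passed visual or statistical confirmation; inactive = the rest, including hits rejected on review.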 The list comes from a sample in which actives are over-represented; it also holds close analogues and randomly drawn compounds. Results with a measured potency or affinity are listed apart.
Use one of these outcomes when replying: active, inactive

Cc1ccccc1-c1nc2ccccc2c(=O)n1C1CCS(=O)(=O)C1 (centres undefined) : inactive
Cc1ccc2nc(C(F)(F)F)c(C#N)c(N)c2c1 : active
Cc1cnc(C(=O)Nc2ccc(N3CCOCC3)cc2)cn1 : inactive
Cc1ccc2cc(C(c3nnnn3C3CCCC3)N3CCN(c4ccc(F)cc4)CC3)c(=O)[nH]c2c1 (centres undefined) : inactive
CC(C(=O)N1c2ccc(F)cc2CCC1C)N1C(=O)c2ccccc2C1=O (centres undefined) : inactive
COc1ccc(S(=O)(=O)NCC(=O)N(CC(=O)NCC2CCCO2)c2ccccc2C)cc1 (centres undefined) : inactive
O=C(CSc1nnc(-c2ccccc2)o1)N1CCN(c2ccccc2)CC1 : inactive
CCOC(=O)C1CCCN(C(=O)CNS(=O)(=O)c2ccc(Br)s2)C1 (centres undefined) : inactive

input: What was the test verdict on CN(C)CCCN1c2ccccc2Sc2ccccc21 ?
output: inactive
